Target: KRAS WT (Homo sapiens (Human), UniProt P01116+P62937)
Sequence (P01116-2 other isoform, or with tags, fused parts or gaps): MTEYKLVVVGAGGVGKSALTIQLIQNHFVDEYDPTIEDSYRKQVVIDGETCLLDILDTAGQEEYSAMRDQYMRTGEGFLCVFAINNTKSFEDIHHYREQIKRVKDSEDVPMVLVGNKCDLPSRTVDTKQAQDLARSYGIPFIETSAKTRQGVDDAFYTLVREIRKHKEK
Sequence (P62937 whole entry): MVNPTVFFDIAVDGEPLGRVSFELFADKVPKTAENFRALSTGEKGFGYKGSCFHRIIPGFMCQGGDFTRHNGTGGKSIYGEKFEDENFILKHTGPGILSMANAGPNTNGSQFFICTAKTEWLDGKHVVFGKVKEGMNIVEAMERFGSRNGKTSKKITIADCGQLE
Assay: Ras-Raf (BRAF RBD) disruption / FRET / MOA assay, KRAS WT
Format: biochemical
Settings: read-out: IC50* KRAS WT FRET data
pIC50: −log10 of the molar value.

- molecule: "CCn1c(-c2cccnc2)c2c3cc(ccc31)-c1csc(n1)C[C@H](NC(=O)[C@H](C(C)C)N(C)C(=O)[C@H]1CCN(C(=O)C#CCN3CCOCC3)C1)C(=O)N1CCC[C@H](N1)C(=O)OCC(C)(C)C2"
  pIC50: "< 5.00"
- molecule: "CCn1c(-c2cncnc2)c2c3cc(ccc31)-c1csc(n1)C[C@H](NC(=O)[C@H](C(C)C)N(C)C(=O)[C@H]1CCN(C(=O)C#CCN3CCOCC3)C1)C(=O)N1CCC[C@H](N1)C(=O)OCC(C)(C)C2"
  pIC50: "< 5.00"
- molecule: "CCn1c(-c2cccnc2[C@H](C)OC)c2c3cc(ccc31)-c1csc(n1)C[C@H](NC(=O)[C@H](C(C)C)N(C)C(=O)N(C)C1CN(C(=O)/C=C/C3CN(C)C3)C1)C(=O)N1CCC[C@H](N1)C(=O)OCC(C)(C)C2 (atropisomer, axis not shown)"
  pIC50: "6.00 to 7.00"
- molecule: "C=CC(=O)N1CC[C@H](C(=O)N(C)[C@H](C(=O)N[C@H]2Cc3cccc(c3)-c3ccc4c(c3)c(c(-c3cc(C5CCN(C)CC5)cnc3[C@H](C)OC)n4CC)CC(C)(C)COC(=O)[C@@H]3CCCN(N3)C2=O)C(C)C)C1 (atropisomer, axis not shown) [Example A515]"
  pIC50: "5.00 to 6.00"
- molecule: "C=CC(=O)N1CCC2(CC1)CN(C(=O)N(C)[C@H](C(=O)N[C@H]1Cc3nc(cs3)-c3ccc4c(c3)c(c(-c3cccnc3[C@H](C)OC)n4CC)CC(C)(C)COC(=O)[C@@H]3CCCN(N3)C1=O)C(C)C)C2 (atropisomer, axis not shown)"
  pIC50: "6.00 to 7.00"
